Items are presented alongside their recorded pIC50.
- Tested on: mammary gland breast cancer (MCF-7)
- ASSAY_OVERVIEW: SRB cytotoxicity assay, MCF-7
- Assay type: cell-based
- EXPERIMENTAL_SETUP: Homo sapiens, MCF7, MCF-7 cells
Value format note: pIC50 is -log10 of concentration (mol/L); just state the number.

Here is how some compounds turned out for pIC50.
COMPOUND | pIC50
O=C(NC(Cc1ccc(O)cc1)C(=O)O)c1ccc(Nc2ncnc3c2cnn3-c2ccccc2)cc1 (stereo not drawn) | 4.95
CSCCC(NC(=O)c1ccc(Nc2ncnc3c2cnn3-c2ccccc2)cc1)C(=O)O (stereo not drawn) | 4.70

[Q] Which pIC50 value is on record for CCC(C)C(NC(=O)c1ccc(Nc2ncnc3c2cnn3-c2ccccc2)cc1)C(=O)O (stereo not drawn) ?
[A] 5.26

[Q] Also O=C(NC(CS)C(=O)O)c1ccc(Nc2ncnc3c2cnn3-c2ccccc2)cc1 (stereo not drawn) , if possible.
[A] 4.97

[Q] Next entry: O=C(O)C1CCCN1C(=O)c1ccc(Nc2ncnc3c2cnn3-c2ccccc2)cc1 (stereo not drawn)
[A] 5.09

[Q] What about this compound? `O=C(c1ccc(Nc2ncnc3c2cnn3-c2ccccc2)cc1)n1nnc2ccccc21`
[A] 4.92

[Q] Cool, now CN(Cc1cnc2nc(N)nc(N)c2n1)c1ccc(C(=O)N[C@@H](CCC(=O)O)C(=O)O)cc1 [Methotrexate, methotrexate, reference compound]
[A] 4.18

[Q] Same question, O=C(NC(Cc1ccccc1)C(=O)O)c1ccc(Nc2ncnc3c2cnn3-c2ccccc2)cc1 (stereo not drawn) this time
[A] 4.97

[Q] Now give it for N=C(N)NCCCC(NC(=O)c1ccc(Nc2ncnc3c2cnn3-c2ccccc2)cc1)C(=O)O (stereo not drawn) too.
[A] 5.33

---

- STUDY_TARGET: human DHFR enzyme (Homo sapiens)
- Construct: purchased MyBioSource MBS9312476
- Sequence (P00374 whole entry): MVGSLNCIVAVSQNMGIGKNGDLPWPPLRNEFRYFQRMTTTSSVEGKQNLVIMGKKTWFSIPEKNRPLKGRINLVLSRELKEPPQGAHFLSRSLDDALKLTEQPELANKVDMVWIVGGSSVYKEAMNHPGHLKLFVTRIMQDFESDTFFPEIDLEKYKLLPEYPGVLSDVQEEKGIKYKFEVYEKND
- ASSAY_OVERVIEW: Elisa assay of human DHFR enzyme
- Type: biochemical
- EXPERIMENTAL_SETUP: conc 100 uM
OBSERVABLE: inhibition at 100 µM (%)
Field format: number, assumed %, no unit text.

MOLECULE | U | EXPERIMENTAL_VALUE
O=C(O)C1CCCN1C(=O)c1ccc(Nc2ncnc3c2cnn3-c2ccccc2)cc1 (centres unmarked) | % | 93
O=C(c1ccc(Nc2ncnc3c2cnn3-c2ccccc2)cc1)n1nnc2ccccc21 | % | 89
CCC(C)C(NC(=O)c1ccc(Nc2ncnc3c2cnn3-c2ccccc2)cc1)C(=O)O (centres unmarked) | % | 95
O=C(NC(CS)C(=O)O)c1ccc(Nc2ncnc3c2cnn3-c2ccccc2)cc1 (centres unmarked) | % | 84
O=C(NC(Cc1ccccc1)C(=O)O)c1ccc(Nc2ncnc3c2cnn3-c2ccccc2)cc1 (centres unmarked) | % | 92
O=C(NC(Cc1c[nH]c2ccccc12)C(=O)O)c1ccc(Nc2ncnc3c2cnn3-c2ccccc2)cc1 (centres unmarked) | % | 77
N=C(N)NCCCC(NC(=O)c1ccc(Nc2ncnc3c2cnn3-c2ccccc2)cc1)C(=O)O (centres unmarked) | % | 94
CSCCC(NC(=O)c1ccc(Nc2ncnc3c2cnn3-c2ccccc2)cc1)C(=O)O (centres unmarked) | % | 81
CC(C)C(NC(=O)c1ccc(Nc2ncnc3c2cnn3-c2ccccc2)cc1)C(=O)O (centres unmarked) | % | 94
CC(NC(=O)c1ccc(Nc2ncnc3c2cnn3-c2ccccc2)cc1)C(=O)O (centres unmarked) | % | 72

[Q] What measured inhibition at 100 µM goes with `O=C(O)CNC(=O)c1ccc(Nc2ncnc3c2cnn3-c2ccccc2)cc1` ?
[A] 81

[Q] How about this molecule: O=C(O)CCC(NC(=O)c1ccc(Nc2ncnc3c2cnn3-c2ccccc2)cc1)C(=O)O (centres unmarked)
[A] 89

[Q] Same for O=C(NC(Cc1c[nH]cn1)C(=O)O)c1ccc(Nc2ncnc3c2cnn3-c2ccccc2)cc1 (centres unmarked)
[A] 94

[Q] Do the same for O=C(NC(Cc1ccc(O)cc1)C(=O)O)c1ccc(Nc2ncnc3c2cnn3-c2ccccc2)cc1 (centres unmarked) please
[A] 86
